From: patent US10238670B2

test system: E. cloacae CeftazS; assay: In vitro MIC, 2010 surveillance isolates; type: cell-based; conditions: Europe; Eucast breakpoints
assay-endpoint: % R (resistance)
Answer with the value and then the unit.

Take a look at these entries with their results.
CN(C)c1cc(NC(=O)CNC(C)(C)C)c(O)c2c1C[C@H]1C[C@H]3[C@H](N(C)C)C(O)=C(C(N)=O)C(=O)[C@@]3(O)C(O)=C1C2=O 0%
C[C@@H](O)[C@H]1C(=O)N2C(C(=O)O)=C(SCCN=CN)C[C@H]12 0%

Let us examine a further case.
Value of % R (resistance) reported for the molecule "CO/N=C(\C(=O)N[C@@H]1C(=O)N2C(C(=O)O)=C(CSc3nc(=O)c(=O)[nH]n3C)CS[C@H]12)c1csc(N)n1" is 7.7%
